Numbers sourced from paper PMC7679444.

B1: TMEM59 peptide (residues 268–280), wild type [modified: long spacer (Tds) at the N-terminal end, used for immobilisation; long spacer (Tds) at the N-terminal end, used for immobilisation] [not stated] / GST-HA-ATG16L1(231–607) … (parent)
chain 1: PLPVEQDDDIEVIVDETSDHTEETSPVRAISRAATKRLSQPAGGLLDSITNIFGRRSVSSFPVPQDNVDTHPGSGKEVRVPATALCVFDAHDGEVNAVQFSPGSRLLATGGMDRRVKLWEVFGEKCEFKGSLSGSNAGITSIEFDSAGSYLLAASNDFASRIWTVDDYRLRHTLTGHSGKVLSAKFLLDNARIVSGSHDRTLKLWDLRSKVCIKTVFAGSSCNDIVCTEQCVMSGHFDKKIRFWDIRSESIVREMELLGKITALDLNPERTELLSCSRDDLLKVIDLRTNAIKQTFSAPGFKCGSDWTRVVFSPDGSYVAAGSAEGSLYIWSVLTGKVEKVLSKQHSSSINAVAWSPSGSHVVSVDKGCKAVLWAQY
chain 2: YVPSEKLSIYGDL

Variants of: B1
Assay: peptide microarray
Conditions: with GST-HA-ATG16L1(231–607) [human]; ligand 800, 600, 400 nM; parent: 100
The following variants are listed with their measured percent of parent values.
Respond with the bare value in % WT.

Sample answers from the record:
1) chain 2 K6A	7
2) chain 2 G11Q	31
3) chain 2 E5M	162
4) chain 2 Y1R	17

Given item chain 2 I9T , the value recorded as its percent of parent is 49

Given item chain 2 D12T , the value recorded as its percent of parent is 133

Given item chain 2 Y10A , the value recorded as its percent of parent is 4

Given item chain 2 D12K , the value recorded as its percent of parent is 191

Given item chain 2 S4G , the value recorded as its percent of parent is 64
